B1: tRNA (parent)
chain: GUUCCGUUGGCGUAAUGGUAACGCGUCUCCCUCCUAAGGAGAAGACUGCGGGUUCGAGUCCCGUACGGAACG

Variants of: B1
Test: yeast fitness, log relative to wild type (ln ratio); higher = fitter; tRNA-Arg(CCU), competitive growth, 37 C, 1 M NaCl
Kindly state yeast fitness (ln) for each of the entries shown.
Give bare numbers.

| mutant_name | endpoint_result |
| --- | --- |
| C27U C66U | -0.134 |

Provide the reported yeast fitness (ln) of each entry below, same order.
1. G1A U2C G6A C27U C46U C66U A70G C71U
2. G1A U2C A43C C46U A69G A70G
3. G1A U2G A43C C46U C66U A70U
4. U2C A43C C46U A70G C71U
5. G6A C27U C46U C66U
6. G1A G6U C66A A70U

// result
[-0.00474, -0.0565, -0.141, 0.00238, -0.0122, -0.0574]

Provide the reported yeast fitness (ln) of each entry below, same order.
1. G1A U2G C46U A69G C71U
2. U2G A70G
3. G1A U2G G6U C46U C66U A69G A70U
4. U2C C27U A43C A70U
5. G1A U2C G6A C46U A70G C71U

// result
-0.0958
-0.0201
-0.288
-0.152
-0.00868

Provide the reported yeast fitness (ln) of each entry below, same order.
1. U2C G6U C27U A70U
2. C27U A43C C46U C66U A70G
3. C27U A43C C66A A69G A70G C71U
4. U2G G6A C27U A43C C46U C66U A69G
5. G6U A70G C71U
6. U2G G6A C27U C46U C66A A69G A70U C71U
7. U2C G6A A43C C46U C66U A69G A70U C71U

// result
1: -0.153; 2: -0.115; 3: -0.369; 4: -0.415; 5: -0.153; 6: -0.385; 7: -0.319

Provide the reported yeast fitness (ln) of each entry below, same order.
1. G1A U2G A69G A70G
2. U2G G6U A43C C46U C66A A70G
3. C27U A69G A70U
4. C27U A43C
5. C27U C46U C66U A69G A70G

// result
1. -0.118
2. -0.251
3. -0.206
4. -0.0182
5. -0.197

Provide the reported yeast fitness (ln) of each entry below, same order.
1. U2C C46U C66U A69G
2. U2G C27U C46U A69G A70U
3. G1A G6A A69G C71U
4. C27U C46U C66U A69G A70U
5. G1A U2C A43C A70G C71U
6. U2C G6A A69G A70U C71U
7. U2C G6A C27U C66U A70G

// result
1: -0.224; 2: -0.0139; 3: -0.146; 4: -0.104; 5: -0.011; 6: -0.174; 7: -0.0339

Provide the reported yeast fitness (ln) of each entry below, same order.
1. U2G G6U C27U C46U C66U A69G A70G
2. G6A C66A A70G
3. G1A U2C C46U A69G A70U C71U

// result
1: -0.277; 2: -0.0871; 3: -0.257
